Where do these numbers come from? They come from patent US20180298070A1.

- subjectOfTest: T1, human GIPR (human), P48546
- T1 chain: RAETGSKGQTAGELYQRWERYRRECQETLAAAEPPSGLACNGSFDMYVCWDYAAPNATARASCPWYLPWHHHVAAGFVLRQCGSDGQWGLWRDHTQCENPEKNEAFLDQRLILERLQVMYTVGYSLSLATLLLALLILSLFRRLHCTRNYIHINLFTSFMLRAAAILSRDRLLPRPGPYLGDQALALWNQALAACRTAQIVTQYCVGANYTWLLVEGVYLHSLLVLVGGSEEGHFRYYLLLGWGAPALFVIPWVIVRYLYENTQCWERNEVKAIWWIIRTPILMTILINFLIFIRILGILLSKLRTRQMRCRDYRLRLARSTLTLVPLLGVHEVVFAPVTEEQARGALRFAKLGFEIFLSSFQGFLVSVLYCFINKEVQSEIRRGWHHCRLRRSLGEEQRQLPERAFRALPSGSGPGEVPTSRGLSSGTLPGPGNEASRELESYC
Non-standard residues stand in square brackets, D forms with d. Groups on a side chain read outwards from the residue. Primed or numbered codes have the meaning given here. No end group written: not given here. *: point of attachment. C20 diacid = O=C(O)CCCCCCCCCCCCCCCCCCC(=O)*; NMeY = CN[C@@H](Cc1ccc(O)cc1)C(=O)O; αMeF = C[C@](N)(Cc1ccccc1)C(=O)O; Lauroyl = CCCCCCCCCCCC(=O)*; Iva = CC[C@](C)(N)C(=O)O; PEG2′ = not defined here; Aib = CC(C)(N)C(=O)O
quantity: Agonist activity (EC50, M)
Reply numerically in M, unit not repeated.

The examples below pair each entry with its known result.
{"columns": ["binder", "recordedValue"],
 "data": [
  ["[NMeY][Aib]EGTFISDYSIALDRIAQ[Aib]N[αMeF]VNW[Iva]LAQRPSSGAPPPSR (not fully specified (C-terminus); ends and bridges not checked) [Compound 76]", "1.5e-12"],
  ["Me-Y[Aib]EGTFISDYSIALDR[Aib]AQQSFVNWLLAQRPSSGAPPPSR (not fully specified (residue 1, C-terminus); ends and bridges not checked) [Compound 137]", "1.7e-12"],
  ["Ac-Y[Aib]EGTFISDYSIALDR[Aib]HQ[Aib]NFVNW[Iva]LAQRPSSGAPPPSR (ends and bridges not checked) [Compound 156]", "4.8e-12"],
  ["Y[Aib]EGTFISDYSK([PEG(2)-Lauroyl])ALDRIAQ[Aib]NFVNWLLAQRPSSGAPPPSR (ends and bridges not checked) [Compound 197]", "5.6e-12"]
]}

Quick one: Agonist activity (EC50, M) for Y[Aib]EGTFISDYSK([PEG(2)-Lauroyl])ALDR[Aib]HQQSFVNW[Iva]LAQRPSSGAPPPS (not fully specified (C-terminus); ends and bridges not checked) [Compound 224] ?
4.2e-12

Quick one: Agonist activity (EC50, M) for Y[Aib]EGTFISDYSK([PEG2′-Lauroyl])ALDR[Aib]HQ[Aib]NFVNW[Iva]LAQRPSSGAPPPS (not fully specified (C-terminus); ends and bridges not checked) [Compound 215] ?
2.8e-12

Quick one: Agonist activity (EC50, M) for Y[Aib]EGTFISDYSK([PEG(2)-Lauroyl])ALDRIAQ[Aib]NFVNWLLAQRPSSGAPPPS (ends and bridges not checked) [Compound 204] ?
8.1e-12

Quick one: Agonist activity (EC50, M) for Y[Aib]EGTVVSLYSK([Gly-Gly-Gly-Gly-C20 diacid])[Aib]LDRQAQ[Aib]EFVRWLLAQR (ends and bridges not checked) [Compound 256] ?
3.1e-10
